Each entry below lists one item and its recorded % change in SGLT2 mRNA vs saline value.
- Test system: SGLT2 mRNA
- assayRemarks: SGLT2 mRNA in kidney of Balb/c mice, twenty 1-10-1 MOE gapmers, PPS 534 and PPS 553 (Table 74)
- Format: in vivo, mouse
- conditions: i.p. 350 nmol/kg twice per week for two weeks, primer probe set 534, normalized to cyclophilin
Strand notation (5' to 3'): a small letter for the sugar, then the base; units joined by * are phosphorothioate-linked, units joined directly phosphodiester-linked; [ ] holds rarer units or linkages, { } end groups; capitals alone tell only the bases. e = 2'-O-(2-methoxyethyl) (MOE); [5mC] = 5-methylcytosine; d = 2'-deoxy (DNA)
Give the number; % Saline is assumed, so skip it.

Illustrative cases are given below, each with its answer.
>>> measured("379684 (antisense eT*dG*dT*d[5mC]*dA*dG*d[5mC]*dA*dG*dG*dA*eT) [compound 379684]")
"−45.0"
>>> measured("379697 (e[5mC]*dT*dG*dG*d[5mC]*dA*dT*dG*dA*d[5mC]*d[5mC]*eA; antisense) [compound 379697]")
"−32.0"

Q: Reported % change in SGLT2 mRNA vs saline, substance 379695 (antisense eG*dG*dA*d[5mC]*dA*d[5mC]*d[5mC]*dG*dT*d[5mC]*dA*eG) [compound 379695] : ____
Result: −52.5

Q: Need % change in SGLT2 mRNA vs saline, item 379689 (antisense eA*dG*dA*dG*d[5mC]*dG*d[5mC]*dA*dT*dT*d[5mC]*e[5mC]) [compound 379689]
Result: −17.5

Q: I'd like to know its % change in SGLT2 mRNA vs saline. The substance in question is 379702 (eG*d[5mC]*dA*d[5mC]*dA*d[5mC]*dA*dG*d[5mC]*dT*dG*e[5mC]) [compound 379702]
Result: −87.8

Q: Give its % change in SGLT2 mRNA vs saline value. Item: 379688 (antisense e[5mC]*d[5mC]*dA*dA*dG*d[5mC]*d[5mC]*dA*d[5mC]*dT*dT*eG) [compound 379688]
Result: −62.6

Q: Report % change in SGLT2 mRNA vs saline for 379692 (antisense eT*dG*dT*dT*d[5mC]*d[5mC]*dA*dG*d[5mC]*d[5mC]*d[5mC]*eA) [compound 379692] please.
Result: −88.1

----------
- Test system: rat SGLT2 mRNA
- assayRemarks: Rat SGLT2 mRNA in kidney, 1-10-1 and 1-10-2 MOE gapmers, Sprague-Dawley rats (Table 63)
- Format: in vivo
- conditions: 450 nmol/kg i.p. twice per week for three weeks
Strand notation (5' to 3'): a small letter for the sugar, then the base; units joined by * are phosphorothioate-linked, units joined directly phosphodiester-linked; [ ] holds rarer units or linkages, { } end groups; capitals alone tell only the bases. e = 2'-O-(2-methoxyethyl) (MOE); [5mC] = 5-methylcytosine; d = 2'-deoxy (DNA)
experimentalReadout: % change in SGLT2 expression relative to saline (%)
// return numeric value only (unit: %, not printed)

Past entries and their recorded results:
>>> measured("ISIS 370717: TAGCCACCAACT 1-10-1 MOE gapmer, phosphorothioate, SGLT-2 (sugars from the 5' end e1 d10 e1, all phosphorothioate, methylation of C not given here)")
"−70"
>>> measured("ISIS 379692: 1-10-1 MOE gapmer, SGLT2 (eT*dG*dT*dT*d[5mC]*d[5mC]*dA*dG*d[5mC]*d[5mC]*d[5mC]*eA)")
"−90"
>>> measured("ISIS 379699: GGCATGAGCTTC 1-10-1 MOE, SGLT2 (eG*dG*d[5mC]*dA*dT*dG*dA*dG*d[5mC]*dT*dT*e[5mC])")
"−83"

Now consider a different substance.
Q: Looking for the measured % change in SGLT2 expression relative to saline of ISIS 382675 (eT*dA*dG*d[5mC]*d[5mC]*dA*d[5mC]*d[5mC]*dA*dA*d[5mC]*eT*eG) , can you help?
Result: −80

----------
- Test system: PTP1B mRNA
- assayRemarks: Dose response for human PTP1B in HuVEC cells, PPS 198 and PPS 3000 (Tables 86, 87)
- Assay type: cell-based
- conditions: PPS 198, 10.0 nM
Strand notation (5' to 3'): a small letter for the sugar, then the base; units joined by * are phosphorothioate-linked, units joined directly phosphodiester-linked; [ ] holds rarer units or linkages, { } end groups; capitals alone tell only the bases. e = 2'-O-(2-methoxyethyl) (MOE); [5mC] = 5-methylcytosine; d = 2'-deoxy (DNA)
Entries and their % Inhibition values follow.
Report as: number unit

Consider the following illustrative entries.
>>> measured("399113 (eG*eT*dT*dA*dG*dG*d[5mC]*dA*dA*dA*dG*dG*eG*e[5mC]; antisense) [compound 399113]")
"72%"
>>> measured("399102 (eG*eA*dA*dG*dT*d[5mC]*dA*d[5mC]*dT*dG*dG*d[5mC]*eT*eT; antisense) [compound 399102]")
"62%"
>>> measured("399276 (eG*eA*dG*dG*dT*dA*dT*d[5mC]*d[5mC]*d[5mC]*dA*dT*e[5mC]*eT; antisense) [compound 399276]")
"61%"
>>> measured("399096 (eT*eG*d[5mC]*dT*d[5mC]*dG*dA*dA*d[5mC]*dT*d[5mC]*d[5mC]*eT*eT; antisense) [compound 399096]")
"78%"
>>> measured("398112 (e[5mC]*eA*dG*d[5mC]*d[5mC]*dT*dG*dG*d[5mC]*dA*d[5mC]*d[5mC]*eT*eA) [compound 398112]")
"73%"

Now, please, on to the next substance.
Q: Query: % Inhibition; subject: 399208 (eA*eG*d[5mC]*dT*d[5mC]*dG*d[5mC]*dT*dA*d[5mC]*d[5mC]*dT*e[5mC]*eT; antisense) [compound 399208]
Result: 86%

----------
- System: rat DGAT2 mRNA
- assayRemarks: Dose-dependent inhibition of DGAT2 in A10 cells (Tables 82, 83)
- Format: cell-based
- conditions: 6.25 nM (Table 82)
Strand notation (5' to 3'): a small letter for the sugar, then the base; units joined by * are phosphorothioate-linked, units joined directly phosphodiester-linked; [ ] holds rarer units or linkages, { } end groups; capitals alone tell only the bases. e = 2'-O-(2-methoxyethyl) (MOE); [5mC] = 5-methylcytosine; d = 2'-deoxy (DNA)
experimentalReadout: percent inhibition of DGAT2
Report the figure along with its unit, number first.

>>> measured("372562 (antisense eG*eT*d[5mC]*dT*dT*dG*dG*dA*dG*dG*dG*d[5mC]*e[5mC]*eG) [compound 372562]")
"0%"

Q: Which measured percent inhibition of DGAT2 value corresponds to 372568 (antisense eG*eA*d[5mC]*dA*d[5mC]*dT*dG*d[5mC]*dA*dG*dG*d[5mC]*e[5mC]*eA) [compound 372568] ?
Result: 0%

Q: Can you look up the measured percent inhibition of DGAT2 of 372586 (antisense eG*eT*dT*d[5mC]*d[5mC]*dT*dG*dG*dT*dG*dG*dT*e[5mC]*eA) [compound 372586] for me?
Result: 19%

Q: So what's the measured percent inhibition of DGAT2 for this one? 372602 (antisense e[5mC]*e[5mC]*dA*dG*dG*d[5mC]*dA*dT*dG*dG*dA*dG*e[5mC]*eT) [compound 372602]
Result: 0%

Q: # percent inhibition of DGAT2 lookup, item 372618 (antisense eG*eT*dG*dG*dT*dA*d[5mC]*dA*dG*dG*dT*d[5mC]*eG*eA) [compound 372618]
Result: 0%

----------
- System: rat DGAT2 mRNA
- assayRemarks: Dose-dependent inhibition of DGAT2 in A10 cells (Tables 82, 83)
- Format: cell-based
- conditions: 50 nM (Table 83)
Strand notation (5' to 3'): a small letter for the sugar, then the base; units joined by * are phosphorothioate-linked, units joined directly phosphodiester-linked; [ ] holds rarer units or linkages, { } end groups; capitals alone tell only the bases. e = 2'-O-(2-methoxyethyl) (MOE); [5mC] = 5-methylcytosine; d = 2'-deoxy (DNA)
experimentalReadout: percent inhibition of rat DGAT2 (%)
Give a bare numeral; the unit % is implied.

Look over these answered cases.
>>> measured("372618 (antisense eG*eT*dG*dG*dT*dA*d[5mC]*dA*dG*dG*dT*d[5mC]*eG*eA) [compound 372618]")
30
>>> measured("372508 (antisense eA*eG*eT*dT*d[5mC]*d[5mC]*dT*dG*dG*dT*dG*dG*dT*e[5mC]*eA*eG) [compound 372508]")
39
>>> measured("372624 (antisense eT*eG*dG*dT*d[5mC]*dT*dT*dG*dT*dG*dA*dT*eT*eG) [compound 372624]")
16
>>> measured("372500 (antisense eG*eT*eG*dT*dG*dT*d[5mC]*dT*dT*d[5mC]*dA*d[5mC]*d[5mC]*eA*eG*e[5mC]) [compound 372500]")
64

Q: Return reported percent inhibition of rat DGAT2; argument: 372578 (antisense eT*eG*dT*dG*dT*d[5mC]*dT*dT*d[5mC]*dA*d[5mC]*d[5mC]*eA*eG) [compound 372578]
Result: 7

Q: Can you look up the measured percent inhibition of rat DGAT2 of 372602 (antisense e[5mC]*e[5mC]*dA*dG*dG*d[5mC]*dA*dT*dG*dG*dA*dG*e[5mC]*eT) [compound 372602] for me?
Result: 19

Recorded values, source patent US8372967B2.
